# credit: ChEMBL document CHEMBL3797028

# target-or-test-system: Sphingosine 1-phosphate receptor 1 (Homo sapiens)
# Sequence (P21453 whole entry): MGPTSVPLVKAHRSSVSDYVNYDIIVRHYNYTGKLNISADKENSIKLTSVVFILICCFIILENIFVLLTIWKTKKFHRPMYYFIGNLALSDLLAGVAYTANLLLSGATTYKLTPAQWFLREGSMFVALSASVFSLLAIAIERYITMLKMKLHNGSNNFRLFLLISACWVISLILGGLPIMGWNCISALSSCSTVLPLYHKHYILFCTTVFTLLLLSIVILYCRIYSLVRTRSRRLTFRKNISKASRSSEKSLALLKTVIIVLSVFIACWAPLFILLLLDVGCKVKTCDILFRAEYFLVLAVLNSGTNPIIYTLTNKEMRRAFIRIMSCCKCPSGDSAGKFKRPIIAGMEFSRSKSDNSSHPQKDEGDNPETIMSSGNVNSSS
# assay-procedure: Agonist activity at human recombinant S1PR1 expressed in CHO cell membranes assessed as [35S]GTPgammaS binding preincubated for 30 mins followed by [35S]GTPgammaS addition measured after 1 hr by topcount analysis
Here, each record is paired with measured pEC50 data.
pEC50 is defined as minus the log10 of a concentration measured in mol/L.

| smiles-entry | observed-value |
| --- | --- |
| CCc1cc(-c2noc(-c3ccc(CN(C)C)cc3)n2)cc(C)c1OC[C@@H](O)CNC(=O)CO | 6.80 |
| CCc1cc(-c2noc(-c3ccc(CN(CC)CC)c(C)c3)n2)cc(C)c1OC[C@@H](O)CNC(=O)CO | 8.00 |
| CCc1cc(-c2noc(-c3cc(C)c(CN(C)CCO)s3)n2)cc(C)c1OC[C@@H](O)CNC(=O)CO | 8.55 |

What pEC50 appears in the records for this compound with Sphingosine 1-phosphate receptor 1 (Homo sapiens)? `CCCN(C)Cc1sc(-c2nc(-c3cc(C)c(OC[C@@H](O)CNC(=O)CO)c(CC)c3)no2)cc1C`
9.22

Please tell me: pEC50 of `CCc1cc(-c2noc(-c3ccc(CNC)cc3)n2)cc(C)c1OC[C@@H](O)CNC(=O)CO` , system Sphingosine 1-phosphate receptor 1 (Homo sapiens)?
5.68

What value of pEC50 on Sphingosine 1-phosphate receptor 1 (Homo sapiens) does `CCc1cc(-c2noc(-c3cc(C)cc(CN(C)CC)c3)n2)cc(C)c1OC[C@@H](O)CNC(=O)CO` have?
8.44

Form: Entry = `CCc1cc(-c2noc(-c3cc(C)c(CN(C)CCN(C)C)s3)n2)cc(C)c1OC[C@@H](O)CNC(=O)CO` | System = Sphingosine 1-phosphate receptor 1 (Homo sapiens) | pEC50 = ____
6.81

Provide value of pEC50 for this record tested with Sphingosine 1-phosphate receptor 1 (Homo sapiens): `CCc1cc(-c2noc(-c3ccc(C)c(CN(C)C)c3)n2)cc(C)c1OC[C@@H](O)CNC(=O)CO`
6.41

Hello, I am looking for reported pEC50 with Sphingosine 1-phosphate receptor 1 (Homo sapiens) for `CCc1cc(-c2nc(-c3cc(C)c(OC[C@@H](O)CNC(=O)CO)c(CC)c3)no2)ccc1CN(C)CC` . Could you help?
9.00

Form field: pEC50 recorded for `CCc1cc(-c2noc(-c3cc(C)c(CN(C)C)c(C)c3)n2)cc(C)c1OC[C@@H](O)CNC(=O)CO` with Sphingosine 1-phosphate receptor 1 (Homo sapiens) (enter value)
7.16

Give Sphingosine 1-phosphate receptor 1 (Homo sapiens) pEC50 for `CCc1cc(-c2noc(-c3cc(C)c(CN(C)CC(C)C)s3)n2)cc(C)c1OC[C@@H](O)CNC(=O)CO`
9.30
